Reference source: PubChem BioAssay

# Experiment Description: blood-stage malaria parasite viability loss – strain 3D7, DAPI fluorescence, 100 nL, primary screen (AID 1184);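 further: parasites grown inside human red blood cells in medium with human serum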
# Condition Description: P. falciparum 3D7 growth, 3 d, higher = more signal
Outcome label depends on z-score relative to -1: at/above gives y, below gives n.

Example cases with answers are listed next.
Compound	Classification
COC(=O)C1=CC(CCCO)=CC(c2cccs2)N(C)C=C1C(=O)OC (stereo not drawn)	y
COCCCNC(=O)[C@@]1(Sc2ccc(C)cc2)CC(=O)N(C2Cc3ccccc3C2)[C@@H]1c1ccc(CO)cc1	n

Exercise: Could you tell me if the measured z-score of CC(C)N1C(=O)C[C@@](C(=O)O)(c2ccc([N+](=O)[O-])cc2)[C@H]1c1ccc(CO)cc1 reaches -1 or more?
Solution: y

Exercise: Moving on to the next compound: COc1ccc(CCNC(=O)[C@@]2(Sc3ccc(C)cc3)CC(=O)N(Cc3ccccc3C(F)(F)F)[C@@H]2c2ccc(CO)cc2I)cc1
Solution: y

Exercise: Moving on to the next compound: COC(=O)[C@@]1(Cc2ccc(OC)cc2)[C@H]2c3cc(C(=O)N(C)C)n(Cc4ccc(C)o4)c3C[C@H]2CN1C(=O)c1ccccc1
Solution: y

Exercise: Moving on to the next compound: COCC(=C=CC[C@H](O)c1ccc(OCCO)cc1)CCO
Solution: n

Exercise: Moving on to the next compound: COC(=O)[C@@]1(Cc2ccc(F)cc2)[C@H]2c3cc(C(=O)N(C)C)n(CCc4ccc(OC)c(Br)c4)c3C[C@H]2CN1C(=O)c1ccccc1
Solution: n
